Test system: NK-YS (IL-2 2.5 ng/mL)
Test: percent inhibition of viability; higher = more inhibition;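 further: normalised to DMSO-only wells as negative and benzethonium chloride as positive control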
Details: 72 h; 10 nM
Quantity kind: percent inhibition of viability (%)
Give your result in % as a bare value.

Answered cases to consult:
>>> numeric_readout("Cc1ccc(NC(=O)c2ccc(CN3CCN(C)CC3)cc2)cc1Nc1nccc(-c2cccnc2)n1 [Imatinib] (max concentration tested 10000 nM)")
-5.53
>>> numeric_readout("CCC1=C[C@@H]2CN(C1)Cc1c([nH]c3ccccc13)[C@@](C(=O)OC)(c1cc3c(cc1OC)N(C)[C@H]1[C@@](O)(C(=O)OC)[C@H](OC(C)=O)[C@]4(CC)C=CCN5CC[C@]31[C@@H]54)C2 [Vinorelbine] (max concentration tested 10000 nM)")
66.4
>>> numeric_readout("COc1ccc(-c2cc3c(C)nc(N)nc3n([C@H]3CC[C@H](OCCO)CC3)c2=O)cn1 (max concentration tested 10000 nM)")
-1.02
>>> numeric_readout("CC[C@@]1(O)C(=O)OCc2c1cc1n(c2=O)Cc2cc3c(CN(C)C)c(O)ccc3nc2-1 [Topotecan] (max concentration tested 10000 nM)")
2.83
>>> numeric_readout("CCCCCOC(=O)Nc1nc(=O)n([C@@H]2O[C@H](C)[C@@H](O)[C@H]2O)cc1F [Capecitabine] (max concentration tested 10000 nM)")
-8.43

The compound CN1CCc2c(c3ccccc3n2Cc2ccc(C(=O)NO)cc2)C1 [Tubastatin A] (max concentration tested 10000 nM) on NK-YS (IL-2 2.5 ng/mL): percent inhibition of viability was -5.38

The compound CC(C)C(=O)Nc1ccc([N+](=O)[O-])c(C(F)(F)F)c1 [Flutamide] (max concentration tested 10000 nM) on NK-YS (IL-2 2.5 ng/mL): percent inhibition of viability was -3.58

The compound Cc1cn(-c2cc(NC(=O)c3ccc(C)c(Nc4nccc(-c5cccnc5)n4)c3)cc(C(F)(F)F)c2)cn1 [Nilotinib] (max concentration tested 10000 nM) on NK-YS (IL-2 2.5 ng/mL): percent inhibition of viability was -0.64

The compound CS(=O)(=O)N1CCc2c(-c3cnc(N)nc3)nc(N3CCOCC3)nc21 (max concentration tested 10000 nM) on NK-YS (IL-2 2.5 ng/mL): percent inhibition of viability was 0.28

The compound CN[C@@H]1C[C@H]2O[C@@](C)([C@@H]1OC)n1c3ccccc3c3c4c(c5c6ccccc6n2c5c31)C(=O)N[C@H]4O [UCN-01] (max concentration tested 10000 nM) on NK-YS (IL-2 2.5 ng/mL): percent inhibition of viability was 1.74

The compound Cc1nc(N)sc1-c1ccnc(Nc2ccc(N3CCOCC3)cc2)n1 [CYC-116] (max concentration tested 10000 nM) on NK-YS (IL-2 2.5 ng/mL): percent inhibition of viability was -0.98

The compound O=C(c1cc(Cc2n[nH]c(=O)c3ccccc23)ccc1F)N1CCN(C(=O)C2CC2)CC1 [Olaparib] (max concentration tested 10000 nM) on NK-YS (IL-2 2.5 ng/mL): percent inhibition of viability was -6.57

* * *

System: SNK-6 (IL-2 2.5 ng/mL)
Assay: percent inhibition of viability; higher = more inhibition
Settings: 72 h; 1000 nM
Quantity kind: percent inhibition of viability (%)
Give your result in % as a bare value.

Answered cases to consult:
>>> numeric_readout("O=C1c2c(O)ccc(O)c2C(=O)c2c(NCCNCCO)ccc(NCCNCCO)c21 [Mitoxantrone] (max concentration tested 1000 nM)")
73.1
>>> numeric_readout("CN1CCN(CCOc2cc(OC3CCOCC3)c3c(Nc4c(Cl)ccc5c4OCO5)ncnc3c2)CC1 [Saracatinib] (max concentration tested 10000 nM)")
-41.3
>>> numeric_readout("O[C@H]1CC[C@H](Nc2ncc3nc(Nc4c(F)cc(F)cc4F)n([C@H]4CCOC4)c3n2)CC1 [Tanzisertib] (max concentration tested 10000 nM)")
-9.49
>>> numeric_readout("Cn1nnc2c(C(N)=O)ncn2c1=O [Temozolomide] (max concentration tested 100000 nM)")
35.2
>>> numeric_readout("CC(C)C(=O)Nc1ccc([N+](=O)[O-])c(C(F)(F)F)c1 [Flutamide] (max concentration tested 10000 nM)")
31.3

Alright, here's another molecule for you.
Item: COc1ccc(-c2ccc3c(N4CCOC[C@@H]4C)nc(N4CCOC[C@@H]4C)nc3n2)cc1CO [AZD8055] (max concentration tested 10000 nM) | percent inhibition of viability: 54.5

* * *

Tested on: NK-92 (IL-2 2.5 ng/mL)
Experiment: percent inhibition of viability; higher = more inhibition
Details: 72 h; 1000 nM
Reported percent inhibition of viability values are given for each entry in this list.
Give your result in % as a bare value.

Answered cases to consult:
>>> numeric_readout("Nc1cccc2c1C(=O)N(C1CCC(=O)NC1=O)C2=O (centres undefined) [Pomalidomide] (max concentration tested 10000 nM)")
-12.4
>>> numeric_readout("CCNC(=O)c1noc(-c2cc(C(C)C)c(O)cc2O)c1-c1ccc(CN2CCOCC2)cc1 [Luminespib] (max concentration tested 1000 nM)")
95
>>> numeric_readout("O=C1c2c(O)ccc(O)c2C(=O)c2c(NCCNCCO)ccc(NCCNCCO)c21 [Mitoxantrone] (max concentration tested 1000 nM)")
45.4
>>> numeric_readout("CNC(=O)c1nn(C)c2c1C(C)(C)Cc1cnc(Nc3ccc(N4CCN(C)CC4)cc3)nc1-2 [Milciclib] (max concentration tested 10000 nM)")
39
>>> numeric_readout("C[C@@H]1CN(Cc2ccc(F)cc2)[C@@H](C)CN1C(=O)c1cc2c(C(=O)C(=O)N(C)C)cn(C)c2cc1Cl [Talmapimod] (max concentration tested 10000 nM)")
-0.77

Item: O=NN(CCCl)C(=O)NC1CCCCC1 [Lomustine] (max concentration tested 10000 nM) | percent inhibition of viability: -13.7

Item: Cc1cc(Nc2cc(N3CCN(C)CC3)nc(/C=C/c3ccccc3)n2)n[nH]1 [ENMD-2076] (max concentration tested 10000 nM) | percent inhibition of viability: 52.2

* * *

Reported percent inhibition of viability values are given for each entry in this list.
Tested on: normal primary NK cells, pool 1 (3 donors) (IL-2 2.5 ng/mL)
Assay: percent inhibition of viability; higher = more inhibition
Conditions: 72 h; 1000 nM
Give your result in % as a bare value.

Answered cases to consult:
>>> numeric_readout("COc1cc2c(Oc3ccc(NC(=O)C4(C(=O)Nc5ccc(F)cc5)CC4)cc3F)ccnc2cc1OCCCN1CCOCC1 [Foretinib] (max concentration tested 1000 nM)")
15.9
>>> numeric_readout("CCc1c(C(=O)C(N)=O)c2c(OCC(=O)O)cccc2n1Cc1ccccc1 [Varespladib] (max concentration tested 10000 nM)")
0.64
>>> numeric_readout("C[C@]12C=CC(=O)C=C1CC[C@@H]1[C@@H]2C(=O)C[C@@]2(C)[C@H]1CC[C@]2(O)C(=O)CO [Prednisone] (max concentration tested 10000 nM)")
-9.18
>>> numeric_readout("O=C(O)c1ccc2c(c1)nc(Nc1cccc(Cl)c1)c1ccncc12 [Silmitasertib] (max concentration tested 10000 nM)")
18.1
>>> numeric_readout("O=C(Nc1c[nH]nc1-c1nc2ccc(CN3CCOCC3)cc2[nH]1)NC1CC1 [AT9283] (max concentration tested 1000 nM)")
12.7
>>> numeric_readout("CO[C@@]12[C@H](COC(N)=O)C3=C(C(=O)C(C)=C(N)C3=O)N1C[C@@H]1N[C@@H]12 [Mitomycin C] (max concentration tested 10000 nM)")
7.9
>>> numeric_readout("COc1cc2c(cc1-c1c(C)noc1C)ncc1[nH]c(=O)n([C@H](C)c3ccccn3)c12 [I-BET151] (max concentration tested 10000 nM)")
34.1
>>> numeric_readout("C[C@@H](Oc1ccc2[nH]nc(/C=C/c3cnn(CCO)c3)c2c1)c1c(Cl)cncc1Cl (max concentration tested 1000 nM)")
72.1

Item: CON(C)C(=O)N1N=C(c2cc(F)ccc2F)S[C@@]1(CCCN)c1ccccc1 [ARRY-520] (max concentration tested 1000 nM) | percent inhibition of viability: -7.49

Item: C1=N/C2=N/c3ccc(OCCN4CCCC4)c(c3)COC/C=C/COCc3cccc(c3)C(=C1)N2 [Pacritinib] (max concentration tested 10000 nM) | percent inhibition of viability: 82.1

Item: Cc1nc(Nc2ncc(C(=O)Nc3c(C)cccc3Cl)s2)cc(N2CCN(CCO)CC2)n1 [Dasatinib] (max concentration tested 1000 nM) | percent inhibition of viability: 19.5

Item: COc1ccc(-c2ccc3ncc4c(c3c2)n(-c2ccc(N3CCNCC3)c(C(F)(F)F)c2)c(=O)n4C)cn1 [NVP-BGT226] (max concentration tested 1000 nM) | percent inhibition of viability: 99

Item: CO[C@H]1/C=C\C=C(/C)C(=O)NC2=CC(=O)C(NCCN(C)C)=C(C[C@@H](C)C[C@H](OC)[C@H](O)[C@@H](C)/C=C(\C)[C@@H]1OC(N)=O)C2=O [Alvespimycin] (max concentration tested 1000 nM) | percent inhibition of viability: 87

Item: CC(C)CC(=O)Nc1n[nH]c2c1CN(C(=O)C1CCN(C)CC1)C2(C)C (max concentration tested 10000 nM) | percent inhibition of viability: 2.13

Item: COc1cc(Nc2c(C#N)cnc3cc(OCCCN4CCN(C)CC4)c(OC)cc23)c(Cl)cc1Cl [Bosutinib] (max concentration tested 10000 nM) | percent inhibition of viability: 20.6

Item: COc1cc2c(N3CCN(C(=O)Nc4ccc(OC(C)C)cc4)CC3)ncnc2cc1OCCCN1CCCCC1 [Tandutinib] (max concentration tested 1000 nM) | percent inhibition of viability: -12.1

Item: CC(C)N(CCCNC(=O)Nc1ccc(C(C)(C)C)cc1)C[C@H]1O[C@@H](n2cc(Br)c3c(N)ncnc32)[C@H](O)[C@@H]1O [SGC0946] (max concentration tested 10000 nM) | percent inhibition of viability: -6.49

Item: NC(=O)c1cccc2cn(-c3ccc([C@@H]4CCCNC4)cc3)nc12 [Niraparib] (max concentration tested 10000 nM) | percent inhibition of viability: -8.51

Item: CCN(c1cc(-c2ccc(CN3CCOCC3)cc2)cc(C(=O)NCc2c(C)cc(C)[nH]c2=O)c1C)C1CCOCC1 [E7438] (max concentration tested 10000 nM) | percent inhibition of viability: -10.7

Item: Cn1cc(CNCC2CCN(c3ncc(C(=O)NO)cn3)CC2)c2ccccc21 [Quisinostat] (max concentration tested 1000 nM) | percent inhibition of viability: 96.1

Item: CNCc1ccc(-c2[nH]c3cc(F)cc4c3c2CCNC4=O)cc1 [Rucaparib] (max concentration tested 10000 nM) | percent inhibition of viability: 3.34

Item: CNC(=O)c1nn(C)c2c1C(C)(C)Cc1cnc(Nc3ccc(N4CCN(C)CC4)cc3)nc1-2 [Milciclib] (max concentration tested 10000 nM) | percent inhibition of viability: 41.2

From: the supplement of paper PMC5908809
